MEASURED_ATTRIBUTE: melting point

Here is how some molecules turned out for melting point.
Incoming: For O=C(Nc1cccc(-n2ccnc2)c1)c1ccn(-c2ccccc2)c1 , what is its reported melting point?
Outgoing: 100 to 103 °C

Incoming: For CCCCCCCCCCCCCCCCNC(=O)C=CC(=O)O , what is its reported melting point?
Outgoing: 46 to 49 °C

Incoming: For Nc1ccc(OCc2ccccc2)cc1N , what is its reported melting point?
Outgoing: 184 °C

Incoming: For CNC(C)=Nc1ccc(-c2c[nH]cn2)cc1 , what is its reported melting point?
Outgoing: 226 to 227 °C

Kindly review the next molecule as well.
Incoming: For CS(=O)(=O)c1ccc(-c2[nH]c(I)cc2-c2ccc(F)cc2)cc1 , what is its reported melting point?
Outgoing: 229 to 231 °C
